What IC50 was measured for each of the following?
System tested: BTK-WT (Homo sapiens)
Construct: purified from insect cells as a full-length construct containing an N-terminal 6X-His tag; His6 (N); made in house; host or cells: insect cells (baculovirus Sf21 in Method B)
Sequence (Q06187 whole entry): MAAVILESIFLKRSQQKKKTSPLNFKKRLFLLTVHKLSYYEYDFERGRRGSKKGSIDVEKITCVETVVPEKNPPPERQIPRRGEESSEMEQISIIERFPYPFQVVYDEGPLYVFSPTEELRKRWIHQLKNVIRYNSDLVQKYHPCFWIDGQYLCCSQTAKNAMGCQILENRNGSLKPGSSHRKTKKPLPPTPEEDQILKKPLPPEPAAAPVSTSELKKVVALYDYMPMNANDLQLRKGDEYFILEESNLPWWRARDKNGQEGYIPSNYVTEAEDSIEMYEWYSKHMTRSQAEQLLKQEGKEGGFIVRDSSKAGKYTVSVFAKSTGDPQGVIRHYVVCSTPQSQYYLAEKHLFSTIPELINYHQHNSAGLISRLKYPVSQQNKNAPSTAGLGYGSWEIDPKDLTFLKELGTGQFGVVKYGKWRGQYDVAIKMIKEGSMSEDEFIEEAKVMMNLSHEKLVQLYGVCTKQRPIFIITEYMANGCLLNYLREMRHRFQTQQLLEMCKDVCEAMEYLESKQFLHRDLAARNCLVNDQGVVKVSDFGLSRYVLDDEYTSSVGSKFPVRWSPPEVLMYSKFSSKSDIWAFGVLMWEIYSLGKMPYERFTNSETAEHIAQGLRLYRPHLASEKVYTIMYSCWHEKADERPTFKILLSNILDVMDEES
Test summary: Btk in vitro inhibitory activity (one of Method A TR-FRET, Method B electrophoretic mobility shift, Method C radiometric filter binding)
Type: biochemical
Conditions used: E compounds, Table 17; read-out: IC50 BTK-WT

# value of IC50, BTK-WT (Homo sapiens), item "C=CC(=O)N1CCC[C@@H](Nc2nnc(C(N)=O)c(Nc3ccc4c(c3)CCC(=O)N4C)n2)C1" = ≤ 10 nM

# IC50 measured on BTK-WT (Homo sapiens) for item "Cc1nc(-c2ccc(C(=O)N[C@@H]3CCCN(c4cnc(C(N)=O)c(Nc5cnn(C)c5)n4)[C@@H]3C)cc2)cs1" = ≤ 10 nM

The recorded IC50 with BTK-WT (Homo sapiens) for "C[C@@H]1[C@H](NC(=O)c2ccc(C(C)(C)O)cc2)CCCN1c1cnc(C(N)=O)c(Nc2ccc(C3(C)CCN(C4CC4)CC3)cc2)n1" was ≤ 10 nM

====

System tested: ITK (Homo sapiens, UniProt Q08881)
Sequence (Q08881 whole entry): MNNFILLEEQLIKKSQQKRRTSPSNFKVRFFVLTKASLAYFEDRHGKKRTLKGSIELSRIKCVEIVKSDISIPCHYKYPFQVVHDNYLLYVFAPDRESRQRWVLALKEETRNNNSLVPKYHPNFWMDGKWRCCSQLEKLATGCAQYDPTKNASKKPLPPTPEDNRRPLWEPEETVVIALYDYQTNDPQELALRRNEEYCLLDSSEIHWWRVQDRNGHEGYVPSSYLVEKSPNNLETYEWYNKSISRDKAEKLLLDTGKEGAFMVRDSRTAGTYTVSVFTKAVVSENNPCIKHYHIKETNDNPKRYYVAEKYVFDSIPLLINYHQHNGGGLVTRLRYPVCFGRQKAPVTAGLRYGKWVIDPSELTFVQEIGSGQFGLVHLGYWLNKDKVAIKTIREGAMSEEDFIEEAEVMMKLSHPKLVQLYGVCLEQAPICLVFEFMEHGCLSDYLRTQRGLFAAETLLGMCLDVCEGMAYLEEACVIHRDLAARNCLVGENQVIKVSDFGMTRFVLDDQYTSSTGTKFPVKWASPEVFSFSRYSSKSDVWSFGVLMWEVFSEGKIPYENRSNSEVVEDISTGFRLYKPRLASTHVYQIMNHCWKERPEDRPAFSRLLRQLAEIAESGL
Test summary: Inhibition of a panel of kinases, in vitro HotSpot kinase assay: ITK
Type: biochemical
Conditions used: Table 15, C compounds; 1 μM ATP
pIC50: −log10 of the molar value.
Assign pIC50 to each entry below.

Short answer for C=CC(=O)N1CCC[C@@H](Nc2nnc(C(N)=O)c(Nc3cncc(F)c3)n2)C1 [Example C-69] : pIC50 was 6.00 to 7.00

The value of pIC50 measured for the compound C=CC(=O)N1CCC[C@@H](Nc2nnc(C(N)=O)c(Nc3ccc(-n4nccn4)cc3)n2)C1 [Example C-81] turned out to be 7.00 to 8.00

get_value(item= CCC(=O)N1CCC[C@@H](Nc2nnc(C(N)=O)c(Nc3ccc(C(C)(C)C)cc3)n2)C1 [Example C-46] , readout=pIC50) returns 6.00 to 7.00

====

System tested: LCK (Homo sapiens, UniProt P06239)
Sequence (P06239 whole entry): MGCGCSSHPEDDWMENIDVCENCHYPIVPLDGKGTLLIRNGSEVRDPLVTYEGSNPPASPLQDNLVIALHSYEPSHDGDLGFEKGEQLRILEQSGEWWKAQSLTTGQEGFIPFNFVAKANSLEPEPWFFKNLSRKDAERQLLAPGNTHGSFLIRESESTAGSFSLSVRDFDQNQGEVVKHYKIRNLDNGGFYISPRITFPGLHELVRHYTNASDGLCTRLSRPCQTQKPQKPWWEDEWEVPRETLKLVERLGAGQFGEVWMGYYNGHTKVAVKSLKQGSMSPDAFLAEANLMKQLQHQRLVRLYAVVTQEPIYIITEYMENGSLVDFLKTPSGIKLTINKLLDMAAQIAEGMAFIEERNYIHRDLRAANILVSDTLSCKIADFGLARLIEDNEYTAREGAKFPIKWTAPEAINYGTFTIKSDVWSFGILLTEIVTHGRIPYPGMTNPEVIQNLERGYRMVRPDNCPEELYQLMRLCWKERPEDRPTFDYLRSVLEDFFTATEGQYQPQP
Test summary: Inhibition of a panel of kinases, in vitro HotSpot kinase assay: LCK
Type: biochemical
Conditions used: Table 10, Formula A-I; 1 μM ATP; read-out: LCK (IC50)
pIC50: −log10 of the molar value. Counter-ions that a name gives are not always drawn.
Please go through the items and note down their pIC50.

For this compound ( Cc1cc(Nc2nc(N3CCC[C@@H](NC(=O)c4cccc(N(C)C)c4)C3)cnc2C(N)=O)sn1 [Example A-27, hydrochloride] ), measured pIC50 is 6.00 to 7.00

Lab note: measured pIC50 of "NC(=O)c1ncc(N2CCC[C@@H](NC(=O)c3ccccc3)C2)nc1Nc1ccc2ncccc2c1" was < 5.00

pIC50 measured on "CN(C)c1ccc(C(=O)N[C@@H]2CCCN(c3cnc(C(N)=O)c(Nc4ccc(S(C)(=O)=O)cc4)n3)C2)cc1" = < 5.00

For reference, reported pIC50 for "Cc1cc(Nc2nc(N3CCC(CNC(=O)c4ccc(N(C)C)cc4)CC3)cnc2C(N)=O)sn1" stands at 6.00 to 7.00

Value of measured pIC50 for the entry "Cc1cc(Nc2nc(N3CCC[C@@H](NC(=O)c4ccc(C(C)C)cc4)C3)cnc2C(N)=O)sn1" : < 5.00

====

System tested: UniProt P06239
Test summary: Inhibition of a panel of kinases, in vitro HotSpot kinase assay: LCK
Type: biochemical
Conditions used: D-compounds panel data; 1 μM ATP; read-out: IC50 LCK
pIC50: −log10 of the molar value.
Measure: pIC50

Reported pIC50 for "C[C@@H]1[C@H](NC(=O)c2ccc(C3CC3)nc2)CCCN1c1cnc(C(N)=O)c(Nc2ccc(OC3CCC(F)(F)CC3)cc2)n1" was < 5.00

For record "CN1CCN(c2ccc(Nc3nc(N4CCC[C@@H](n5ccc6cc(C7CC7)cc(F)c6c5=O)C4)cnc3C(N)=O)cc2)CC1" the listed pIC50 is 6.00 to 7.00

Reported pIC50 for "Cc1cc(Nc2nc(N3C[C@@H](NC(=O)c4ccc(C5CC5)cc4F)CC[C@@H]3C)cnc2C(N)=O)sn1" was 6.00 to 7.00

Reported pIC50 for "Cc1ncc(Nc2nc(N3CCC[C@@H](NC(=O)c4ccc(C5CC5)cc4F)C3)cnc2C(N)=O)s1" was < 5.00

The reported pIC50 of the molecule "C[C@@H]1[C@H](NC(=O)c2ccc(C3CC3)cc2)CCCN1c1cnc(C(N)=O)c(Nc2cnc(N3CCN(C)CC3)nc2)n1" was 6.00 to 7.00

Entry "CC(=O)N1CCN(c2ccc(Nc3nc(N4CCC[C@@H](NC(=O)c5ccc(C6CC6)cc5)[C@H]4C)cnc3C(N)=O)cc2)CC1" — recorded pIC50 = 7.00 to 8.00

Data point: "C[C@@H]1[C@H](NC(=O)c2ccc(C(C)(C)O)cc2)CCCN1c1cnc(C(N)=O)c(Nc2cnn(C)c2)n1" ; pIC50 = 6.00 to 7.00

Briefly, pIC50 measured for "C[C@@H]1[C@H](NC(=O)c2ccc(C(N)=O)cc2)CCCN1c1cnc(C(N)=O)c(Nc2cnn(C)c2)n1" : 7.00 to 8.00

The recorded pIC50 for entry "C[C@@H]1[C@H](NC(=O)c2ncc(C3CC3)cn2)CCCN1c1cnc(C(N)=O)c(Nc2cnn(C)c2)n1" equals 7.00 to 8.00

# molecule "Cn1cc(Nc2nc(N3CCC[C@@H]4[C@H]3CCCN4C(=O)c3ccc(C4CC4)cc3)cnc2C(N)=O)cn1" ; its pIC50 = 6.00 to 7.00

Memo: "C[C@@H]1[C@H](NC(=O)c2ccc(C3CC3)cc2)CCCN1c1cnc(C(N)=O)c(Nc2cnn(C(F)F)c2)n1" , reported pIC50: 5.00 to 6.00

// pIC50 lookup, molecule = "C[C@@H]1[C@H](NC(=O)c2ccc(C3CC3)cc2)CCCN1c1cnc(C(N)=O)c(Nc2ccc(OC3CCN(CC(F)(F)F)CC3)cc2)n1" , result: < 5.00

pIC50 for "CCN(CC)c1ccc(C(=O)N[C@@H]2CCCN(c3cnc(C(N)=O)c(Nc4cnn(C)c4)n3)[C@@H]2C)cc1" is 6.00 to 7.00

Form: molecule = "C[C@@H]1[C@H](NC(=O)c2ccc(C3CC3)cc2)CCCN1c1cnc(C(N)=O)c(Nc2ccc(C3CCN(C)CC3)cc2)n1" ; pIC50 = 6.00 to 7.00

Query "C[C@@H]1[C@H](NC(=O)c2ccc(C3CC3)cc2)CCCN1c1cnc(C(N)=O)c(Nc2ccc(N3CCN(CC(F)(F)F)CC3)cc2)n1" yields pIC50 of < 5.00

Looking up "C[C@@H]1CC[C@H](NC(=O)N(C)C)CN1c1cnc(C(N)=O)c(Nc2cnn(C)c2)n1" , I see its pIC50 listed as 7.00 to 8.00

The recorded pIC50 for C[C@@H]1[C@H](NC(=O)c2ccc(C3CC3)cc2)CCCN1c1cnc(C(N)=O)c(Nc2ccc(OC3CCCN(C)C3)cc2)n1 (some centres unmarked) is 7.00 to 8.00

====

For each of the compounds below, state its pIC50.
System tested: EGFR (Homo sapiens, UniProt P00533)
Sequence (P00533 25-1210): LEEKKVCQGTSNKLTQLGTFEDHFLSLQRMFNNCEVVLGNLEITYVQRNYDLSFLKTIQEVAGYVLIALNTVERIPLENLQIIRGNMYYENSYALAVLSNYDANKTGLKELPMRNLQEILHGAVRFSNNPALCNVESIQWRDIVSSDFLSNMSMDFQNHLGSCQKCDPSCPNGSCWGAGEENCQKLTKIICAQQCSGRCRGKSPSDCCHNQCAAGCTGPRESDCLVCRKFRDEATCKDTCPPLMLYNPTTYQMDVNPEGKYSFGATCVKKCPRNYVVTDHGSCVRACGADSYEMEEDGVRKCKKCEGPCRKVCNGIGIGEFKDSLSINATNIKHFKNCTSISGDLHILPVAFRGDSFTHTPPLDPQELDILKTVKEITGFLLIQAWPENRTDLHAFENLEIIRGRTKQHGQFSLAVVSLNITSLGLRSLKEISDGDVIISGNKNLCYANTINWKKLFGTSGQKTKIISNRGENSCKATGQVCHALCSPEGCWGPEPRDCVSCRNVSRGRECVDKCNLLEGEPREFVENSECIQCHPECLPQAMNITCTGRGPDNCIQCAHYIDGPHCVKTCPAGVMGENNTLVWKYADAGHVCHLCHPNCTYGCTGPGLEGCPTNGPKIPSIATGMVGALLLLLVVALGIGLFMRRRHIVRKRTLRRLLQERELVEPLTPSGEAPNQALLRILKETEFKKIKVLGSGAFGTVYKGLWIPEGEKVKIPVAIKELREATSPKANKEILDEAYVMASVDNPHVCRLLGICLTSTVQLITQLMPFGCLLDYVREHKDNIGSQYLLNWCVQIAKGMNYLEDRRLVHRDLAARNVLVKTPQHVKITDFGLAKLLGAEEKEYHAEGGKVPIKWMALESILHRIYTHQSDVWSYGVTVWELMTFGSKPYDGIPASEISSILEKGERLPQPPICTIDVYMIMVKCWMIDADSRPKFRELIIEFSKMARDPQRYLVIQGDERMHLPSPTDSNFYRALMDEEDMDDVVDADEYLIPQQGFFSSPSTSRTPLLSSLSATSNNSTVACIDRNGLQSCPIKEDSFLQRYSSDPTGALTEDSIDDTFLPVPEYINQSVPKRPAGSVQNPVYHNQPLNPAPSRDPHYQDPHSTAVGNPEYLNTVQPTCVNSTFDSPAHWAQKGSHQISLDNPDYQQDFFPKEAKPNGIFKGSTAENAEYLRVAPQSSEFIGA
Test summary: Inhibition of a panel of kinases, in vitro HotSpot kinase assay: EGFR
Type: biochemical
Conditions used: E compounds, Table 17
pIC50: −log10 of the molar value.

Notebook: C=CC(=O)N1CC[C@@H](N(C)c2nnc(C(N)=O)c(Nc3ccc(C(C)C)cc3)n2)C1 [Example E-26] , pIC50 read as ≥ 8.00

pIC50 measured on C=CC(=O)N1CC[C@@H](N(C)c2cnc(C(N)=O)c(Nc3ccc(C4(C)CCN(C5CC5)CC4)cc3)n2)C1 [Example E-104] = ≥ 8.00

// C=CC(=O)N1CCC[C@@H](Nc2nnc(C(N)=O)c(Nc3ccc4ncccc4c3)n2)C1 [Example E-68] : pIC50 value = ≥ 8.00

Reported pIC50 ( C[C@@H]1[C@H](NC(=O)c2ccc(C(C)(C)N3CCCC3)cc2)CCCN1c1cnc(C(N)=O)c(Nc2cnn(C)c2)n1 [Example E-143] ) = < 5.00

Documented pIC50 of C[C@@H]1[C@H](NC(=O)c2ccc(C3CC3)cc2)CCCN1c1cnc(C(N)=O)c(Nc2cnc(C3CCOCC3)nc2)n1 [Example E-144] : < 5.00

Note to self: pIC50 recorded for Cn1cc(Nc2nc(N3CCCC(C)(NC(=O)c4ccc(C5CC5)cc4)C3)cnc2C(N)=O)cn1 (centres unmarked) [Example E-150] was < 5.00

Please fill in: pIC50 reported for C=CC(=O)N1CC[C@@H](N(C)c2cnc(C(N)=O)c(Nc3ccc(-c4ncco4)cc3)n2)C1 [Example E-118] = 7.00 to 8.00

// C[C@@H]1[C@H](NC(=O)c2ccc3oc(C4CC4)nc3c2)CCCN1c1cnc(C(N)=O)c(Nc2cnn(C)c2)n1 [Example E-139] : pIC50 value = 6.00 to 7.00

Data credit: patent US20210070748A1
